Target: BCL-2/BAK (Homo sapiens)
Construct: purchased Cisbio
Sequence (P10415 whole entry, species assumed): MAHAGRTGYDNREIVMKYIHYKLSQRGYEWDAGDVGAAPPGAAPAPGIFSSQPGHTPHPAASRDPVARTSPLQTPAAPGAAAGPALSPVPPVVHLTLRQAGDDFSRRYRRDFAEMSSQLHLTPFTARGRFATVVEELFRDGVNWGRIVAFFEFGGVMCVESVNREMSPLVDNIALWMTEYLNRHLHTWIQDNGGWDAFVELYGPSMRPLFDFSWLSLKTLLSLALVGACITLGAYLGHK
Assay: Screening on inhibitory activity for BCL-2/BAK binding (Cisbio HTRF kit)
quantity: IC50 (nM)
Field format: number, assumed nM, no unit text.

{"columns": ["molecule", "unit.text", "IC50"],
 "data": [
  ["CN1CCC(CCCNc2ccc(S(=O)(=O)NC(=O)c3ccc(N4CCN(CC5=C(c6ccc(C(F)(F)F)cc6Cl)CC(C)(C)CC5)CC4)cc3Oc3cnc4[nH]ccc4c3)cc2[N+](=O)[O-])CC1 [Compound 17-1]", "nM", 2]
]}

Give recorded IC50. CC1(C)CCC(CN2CCN(c3ccc(C(=O)NS(=O)(=O)c4ccc(NCCC5CCCOC5)c([N+](=O)[O-])c4)c(Oc4cnc5[nH]ccc5c4)c3)CC2)=C(c2ccc(C(F)(F)F)cc2Cl)C1 (stereo not drawn) [Compound 45-1]
2.18

Give recorded IC50. CCS(=O)(=O)N1CCOC(CNc2ccc(S(=O)(=O)NC(=O)c3ccc(N4CCN(CC5=C(c6ccc(C(F)(F)F)cc6Cl)CC(C)(C)CC5)CC4)cc3Oc3cnc4[nH]ccc4c3)cc2[N+](=O)[O-])C1 (stereo not drawn) [Compound 57-1]
3.4

====

Tested on: human platelet Caspase-3 activity
Assay: Human platelet toxicity experiment (Caspase-3 activity assay)
Assay type: cell-based
Conditions: compound concentration 1 μM, 90 min; data normalized, reference ABT-199
Method: Experimental Example 6: Human Platelet Toxicity Experiment (Caspase-3 Activity Assay) 10 mL of human whole blood was collected using a heparin sodium anticoagulation tube, mixed well by turning upside down, and centrifuged at 90 g for 10 min. The supernatant was collected and centrifuged at 1950 g for 10 min. […] The resulting mixture was mixed gently, and the plate was read by a PE Envision multi-functional microplate reader (excitation: 360 nm, emission: 460 nm) once every 10 min for 6 times. […]
quantity: human platelet Caspase-3 activity, Slope
// return a plain number; no unit text

{"columns": ["compound", "human platelet Caspase-3 activity, Slope"],
 "data": [
  ["CC1(C)CCC(CN2CCN(c3ccc(C(=O)NS(=O)(=O)c4ccc(NC[C@H]5COCCO5)c([N+](=O)[O-])c4)c(Oc4cnc5[nH]ccc5c4)c3)CC2)=C(c2ccc(C(F)(F)F)cc2Cl)C1 [Compound 8-1]", 0.59],
  ["CC1(C)CCC(CN2CCN(c3ccc(C(=O)NS(=O)(=O)c4ccc(NCCC5CCN(CCF)CC5)c([N+](=O)[O-])c4)c(Oc4cnc5[nH]ccc5c4)c3)CC2)=C(c2ccc(C(F)(F)F)cc2Cl)C1 [Compound 20-1]", 0.37],
  ["CC1(C)CCC(CN2CCN(c3ccc(C(=O)NS(=O)(=O)c4ccc(NCC5CCOCC5)c([N+](=O)[O-])c4)c(Oc4cnc5[nH]ccc5c4)c3)CC2)=C(c2ccc(C(F)(F)F)cc2Cl)C1 [Compound 1-1]", 0.67],
  ["CC1(C)CCC(CN2CCN(c3ccc(C(=O)NS(=O)(=O)c4ccc(NC[C@@H]5COCCO5)c([N+](=O)[O-])c4)c(Oc4cnc5[nH]ccc5c4)c3)CC2)=C(c2ccc(C(F)(F)F)cc2Cl)C1 [Compound 7-1]", 0.48]
]}

Read the next record carefully.
Give recorded human platelet Caspase-3 activity, Slope. CC1(C)CCC(CN2CCN(c3ccc(C(=O)NS(=O)(=O)c4ccc(NCC5CCOCC5)c([N+](=O)[O-])c4)c(Oc4cnc5[nH]ccc5c4)c3)CC2)=C(c2ccc(C(F)(F)F)c(F)c2)C1 [Compound 6-1]
0.45
